// provenance: the RNAGym collection of RNA variant scans (doi:10.7554/elife.90254)

Quick reference: self-cleavage of the listed items.
B1: LINE1-full (parent)
chain: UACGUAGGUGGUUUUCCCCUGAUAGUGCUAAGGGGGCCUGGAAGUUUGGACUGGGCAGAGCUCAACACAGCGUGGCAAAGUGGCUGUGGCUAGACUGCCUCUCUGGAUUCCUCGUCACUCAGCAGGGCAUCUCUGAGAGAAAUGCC

Variants of: B1
Test: self-cleavage, relative activity (ratio to wild type); higher = more cleavage; in vitro, sequencing; the parent is a self-cleaving ribozyme
Form: value (number only, do not type unit).

The cases that follow already have their self-cleavage on record.
UACGUAGGUGGUUUUCCCCUGAUAGUGCUAAGGGGGCCUGGAAGUUUGGACUGGGCAGAGCGCAACACAGCGUGGCAAAGUGGCUGUGGCUAGACUGCCUCUCUGGAUUCCUCGUCACUCAGCAGGGCGUCUCUGAGAGAAAUGCC [U62G A129G] :: 0.15
UACGUAGGUGGUUUUCCCCUGGUAGUGCUAAGGGGGCCUGGAAGUUUGGACUGGGCAGAGCUCAACACAGCGUGGCAAAGUGGCUGUGGCUAGACUGCCUCUCUGGAUUCCUCGUCACUCAGCAGGGCAUCUCUGUGAGAAAUGCC [A22G A136U] :: 0.87

Look up self-cleavage of UUCGUAGGUGGUUUUCCCCUGAUAGUGCUAAGGGGGCCUGGAAGUCUGGACUGGGCAGAGCUCAACACAGCGUGGCAAAGUGGCUGUGGCUAGACUGCCUCUCUGGAUUCCUCGUCACUCAGCAGGGCAUCUCUGAGAGAAAUGCC [A2U U46C] and report it.
1.76

Annotate the variant UACGCAGGUGGUUUUCCCCUGAUAGUGCUAAGGGGGCCUGGAAGUUUGGACUGGGCAGAGCUCAACACAGCGUGGCAAAGUGGUUGUGGCUAGACUGCCUCUCUGGAUUCCUCGUCACUCAGCAGGGCAUCUCUGAGAGAAAUGCC [U5C C84U] with its measured self-cleavage.
0.18

Please indicate self-cleavage recorded for UACGUAGGUGGUUUUCCCCUGAUAGUGCUAAGGGGGCCUGGAAGUUUGGACUGGGCAGAGCUCAACACAGCGUGGCAAAGUGGCUGUGGCUAGACUGCCUCUCUGGAUUCCUUGUCGCUCAGCAGGGCAUCUCUGAGAGAAAUGCC [C113U A117G]
1.54

Could you please provide reported self-cleavage for UACGUAGGUGGUUUUCCCUUGAUAGUGCUAAGGGGGCCUGGAAGUUUGGACUGGGCAGAGCUCAACACAGCGUGGCAAAGUGGCUGUGGCUAGGCUGCCUCUCUGGAUUCCUCGUCACUCAGCAGGGCAUCUCUGAGAGAAAUGCC [C19U A94G] ? Thanks!
0.29

Tell us which self-cleavage value is on record for UACGUAGGUGGUUUUCCCCUGGUAGUGCUAAGGGGGCCUGGAAGUUUGGACUGGGCAGAGCUCAACACAGCGUGGCAAAGUGUCUGUGGCUAGACUGCCUCUCUGGAUUCCUCGUCACUCAGCAGGGCAUCUCUGAGAGAAAUGCC [A22G G83U]
0.58

Please give measured self-cleavage of the following entry: UACGUAGGUGGUUUUCCCCUGAUUGUGCUAAGGGGGCCUGGAAGUUUGGACUGGGCAGAGCUCAACACAGCGUGGCAAAGUGGCUGUGGCUAGACUGCCUCUCAGGAUUCCUCGUCACUCAGCAGGGCAUCUCUGAGAGAAAUGCC [A24U U104A]
0.65
